src = PubChem BioAssay (NCI)

TGI values by entry
# System: A498 renal
# method-summary: NCI tumour cell line growth inhibition, 48 h

[
  {
    "molecule": "Cc1sccc1C(=S)Nc1ccc(Cl)c(/C=N/OC(C)(C)C)c1",
    "assayed-system": "A498 renal",
    "TGI": "46.8 µM"
  },
  {
    "molecule": "CCOC1=CP(=O)(OCC)CC(C)=C1Cl (stereo not given)",
    "assayed-system": "A498 renal",
    "TGI": "> 100 µM"
  },
  {
    "molecule": "CCCCCC(/C=N/Nc1ccccc1)C(O)(C(F)(F)F)C(F)(F)F (stereo not given)",
    "assayed-system": "A498 renal",
    "TGI": "> 100 µM"
  },
  {
    "molecule": "C[N+]1(C)C/C(=C/c2ccc(F)cc2)C(=O)/C(=C\\c2ccc(F)cc2)C1",
    "assayed-system": "A498 renal",
    "TGI": "> 100 µM"
  },
  {
    "molecule": "Ic1ccc2[nH]cc(SSc3c[nH]c4ccc(I)cc34)c2c1",
    "assayed-system": "A498 renal",
    "TGI": "5.97 µM"
  },
  {
    "molecule": "C=C(C)[C@@H]1CC[C@]2(CNCCO)CC[C@]3(C)[C@H](CC[C@@H]4[C@@]5(C)CCC(N)[C@@](C)(CO)[C@@H]5CC[C@]43C)[C@@H]12 (stereo not given in full)",
    "assayed-system": "A498 renal",
    "TGI": "2.85 µM"
  },
  {
    "molecule": "COc1ccc(C2=C(c3cn(C)c4ccccc34)C(=O)NC2=O)cc1",
    "assayed-system": "A498 renal",
    "TGI": "> 25 µM"
  },
  {
    "molecule": "C=CCNC(=O)/C=C\\C(=O)O",
    "assayed-system": "A498 renal",
    "TGI": "> 100 µM"
  },
  {
    "molecule": "CN1C(NN)=NS(=O)(=O)c2ccccc21",
    "assayed-system": "A498 renal",
    "TGI": "> 100 µM"
  },
  {
    "molecule": "CC(=O)OC1C[C@@H](C)C2(C[C@H](O)c3ccoc3)C(=O)OC[C@]13C2CCC(O)C31CO1 (stereo not given in full)",
    "assayed-system": "A498 renal",
    "TGI": "> 100 µM"
  }
]

* * *

Listed here are compounds together with their documented TGI.
# Tested on: NCI-H23 lung
# method-summary: NCI tumour cell line growth inhibition, 48 h
quantity: TGI

[
  {
    "compound": "COc1ccccc1N1C(=O)C2C3c4ccccc4C(OC(C)=O)(c4ccccc43)C2C1=O (centres undefined)",
    "result": "> 100 µM"
  },
  {
    "compound": "C/C(CC(=O)Nc1ccccc1[N+](=O)[O-])=N\\NC(N)=O",
    "result": "> 100 µM"
  },
  {
    "compound": "COc1cc(/C=N/N=C(\\N)NO)cc(Cl)c1O",
    "result": "> 100 µM"
  },
  {
    "compound": "Cc1cc(C)c(CNC(=O)c2cc(-c3ccc(CN4CCOCC4)cc3)cc3c2cnn3C2CCCC2)c(=O)[nH]1",
    "result": "47.8 µM"
  },
  {
    "compound": "CCCCC/C=C\\C=C1\\C(=O)C=C[C@@H]1C/C=C\\CCCC(=O)O",
    "result": "15.5 µM"
  },
  {
    "compound": "Nc1nc[n+](Cc2ccccc2CCO)c2nc[nH]c12",
    "result": "> 100 µM"
  },
  {
    "compound": "N#CCCC1(CCC#N)CCc2ccccc2C1=O",
    "result": "> 100 µM"
  },
  {
    "compound": "COc1nc(NC2OC(COC(C)=O)C(OC(C)=O)C(OC(C)=O)C2OC(C)=O)c(N=CC=Nc2c(NC3OC(COC(C)=O)C(OC(C)=O)C(OC(C)=O)C3OC(C)=O)nc(OC)n(C)c2=O)c(=O)n1C (centres undefined)",
    "result": "> 100 µM"
  },
  {
    "compound": "COc1cc(-n2cncc2-c2ccc3ccccc3c2)cc(OC)c1OC",
    "result": "5.91 µM"
  }
]

* * *

# Test system: OVCAR-8 ovarian
# method-summary: NCI tumour cell line growth inhibition, 48 h; in the data active = GI50 below about 0.43 µM; inactive = the rest
Outcome codes: Yes = active, No = inactive

[
  {
    "compound": "O=C1OCC2=C1C(c1cccc(F)c1)c1cc3c(cc1N2CCO)CCC3 (stereo not drawn)",
    "answer-label": "Yes"
  },
  {
    "compound": "Nc1nc2c(c3cnccc13)C(c1cccc(Br)c1)Cc1cnccc1-2 (stereo not drawn)",
    "answer-label": "No"
  },
  {
    "compound": "Cc1cc(OCc2n[nH]c(=S)n2/N=C/c2ccc(F)cc2)ccc1Cl",
    "answer-label": "No"
  },
  {
    "compound": "COc1cc2c(cc1O)N=C[C@@H]1C[C@@H](F)CN1C2=O",
    "answer-label": "No"
  },
  {
    "compound": "Cc1cc(C)c(CNC(=O)c2cc(-c3ccc(CN4CCOCC4)cc3)cc3c2cnn3C2CCCC2)c(=O)[nH]1",
    "answer-label": "No"
  },
  {
    "compound": "COc1cc(/C=C/C(=O)c2cc(OC)c(OC)c(OC)c2)ccc1Oc1nc2c(c(=O)n(C)c(=O)n2C)n1C",
    "answer-label": "No"
  },
  {
    "compound": "CCCCCCCCCCCCCCCCCCOP(=O)([O-])OC1CC[N+](C)(C)CC1",
    "answer-label": "No"
  },
  {
    "compound": "O=C1/C(=C\\c2ccc(Br)cc2)CN(C(=O)c2ccccc2F)C/C1=C\\c1ccc(Br)cc1",
    "answer-label": "No"
  },
  {
    "compound": "COc1cc(Nc2cc(C)nc(N3CCN(c4ccnc5cc(Cl)ccc45)CC3)n2)cc(OC)c1",
    "answer-label": "Yes"
  },
  {
    "compound": "O=C([O-])c1ccc2c(c1)-c1nc-2nc2[n-]c(nc3nc(nc4[n-]c(n1)c1ccc(C(=O)[O-])cc41)-c1ccc(C(=O)[O-])cc1-3)c1ccc(C(=O)[O-])cc21.[Gd+3].[K+]",
    "answer-label": "No"
  },
  {
    "compound": "O=C(OC(CNc1c(C(=O)c2ccccc2)c(=O)n(Cc2ccccc2)c(=O)n1Cc1ccccc1)CN1CCOCC1)c1ccccc1 (stereo not drawn)",
    "answer-label": "No"
  },
  {
    "compound": "COc1c(OCCCN2CCOCC2)ccc2c3n(c(=NC(=O)c4cnc(N)nc4)nc12)CCN3",
    "answer-label": "Yes"
  },
  {
    "compound": "CC(=O)OCC1OC(OC2=C(CC=C(C)C)C(=O)c3ccccc3C2=O)C(OC(C)=O)C(OC(C)=O)C1OC(C)=O (stereo not drawn)",
    "answer-label": "No"
  }
]

* * *

Known TGI of a selection of molecules
# Test system: 786-0 renal
# method-summary: NCI tumour cell line growth inhibition, 48 h

[
  {
    "molecule": "Cc1ncc([N+](=O)[O-])n1CC(O)Cn1ccnc1[N+](=O)[O-] (stereo not drawn)",
    "TGI": "> 100 µM"
  },
  {
    "molecule": "Cc1ccnc(NS(=O)(=O)c2ccc(NC3=CC(=O)C(=O)c4ccccc43)cc2)n1",
    "TGI": "> 100 µM"
  },
  {
    "molecule": "COc1cccc2c1C(=O)c1c(O)c3c(c(O)c1C2=O)CC(O)(C(O)CO)CC3OC1CC2C(OC3COCC(C#N)N32)C(C)O1 (stereo not drawn)",
    "TGI": "0.0282 µM"
  },
  {
    "molecule": "O=C(Nc1cccc(C(F)(F)F)c1)C(=O)C(C(=O)c1ccc2ccccc2c1)C1OC(=O)c2ccccc21 (stereo not drawn)",
    "TGI": "15.9 µM"
  },
  {
    "molecule": "CN(C)CCCNC(=O)CCNC(=O)c1cc(NC(=O)c2cc(NC(=O)c3cc(NC(=O)CCCNC(=O)c4cc(NC(=O)c5cc(NC(=O)c6nccn6C)cn5C)cn4C)cn3C)cn2C)cn1C",
    "TGI": "> 100 µM"
  },
  {
    "molecule": "OC(Cc1cccnc1)(c1ccccc1)c1ccccc1",
    "TGI": "> 100 µM"
  },
  {
    "molecule": "COC(O)C12OC3CO[Si](C(C)C)(C(C)C)O[Si](C(C)C)(C(C)C)OC3C1Oc1nc(=O)ccn12 (stereo not drawn)",
    "TGI": "31.1 µM"
  },
  {
    "molecule": "CC[C@H]1C[C@@H](O)[C@@H]2[C@H](O)[C@H](O)CN2C1",
    "TGI": "> 100 µM"
  }
]
